B1: HDV Ribozyme (parent)
chain: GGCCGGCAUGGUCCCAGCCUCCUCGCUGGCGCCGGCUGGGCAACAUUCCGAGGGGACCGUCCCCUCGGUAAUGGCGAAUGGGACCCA

variants of: B1; experiment: self-cleavage, relative activity (ratio to wild type); higher = more cleavage; co-transcriptional
self-cleavage below 0.5 gives NOT MET; self-cleavage at or above it gives MET.

Worked set:
VARIANT_DESIGNATION: G1A C44U
CLASSIFICATION: NOT MET
//
VARIANT_DESIGNATION: C19U G74U
CLASSIFICATION: NOT MET
//
VARIANT_DESIGNATION: G53C U69G
CLASSIFICATION: MET
//
VARIANT_DESIGNATION: G5U A43G
CLASSIFICATION: NOT MET
//
VARIANT_DESIGNATION: C15U C57G
CLASSIFICATION: MET

Would you say C44U C62U shows self-cleavage at minimum 0.5?
NOT MET

Would you say G53U C75A shows self-cleavage at minimum 0.5?
NOT MET

Would you say G40A G68U shows self-cleavage at minimum 0.5?
MET

Would you say G34A C62G shows self-cleavage at minimum 0.5?
NOT MET

Would you say A16G G59U shows self-cleavage at minimum 0.5?
MET

Would you say G40A C61U shows self-cleavage at minimum 0.5?
MET

Would you say G76C U79A shows self-cleavage at minimum 0.5?
MET

Would you say A42G C84U shows self-cleavage at minimum 0.5?
MET

Would you say A45C G74C shows self-cleavage at minimum 0.5?
NOT MET

Would you say G38C G82C shows self-cleavage at minimum 0.5?
NOT MET

Would you say C57A shows self-cleavage at minimum 0.5?
MET

Would you say U46C C86U shows self-cleavage at minimum 0.5?
MET

Would you say C19A G81A shows self-cleavage at minimum 0.5?
NOT MET
